- test details: protein stability index of a GFP-peptide fusion (GPS, HEK-293T) (PSI 1-6); higher = more stable;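 also: 24-mer peptide tiles fused after GFP, lentivirally expressed, FACS-sorted into six equal bins by GFP/DsRed ratio, decoded by Illumina sequencing, PSI is the read-weighted mean bin number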
- run conditions: treatment: DMSO; c terminus: a fixed tail appended
Everything with protein stability index lower than 3 is criterion not met; everything else, including exactly 3, is criterion met.

Exam item: Is the recorded value of protein stability index equal to or greater than 3 for this sequence? MQELTEMLGFRPYRFYFYMWKFVS [SLC6A17]
Marked response: criterion not met

Exam item: Is the recorded value of protein stability index equal to or greater than 3 for this sequence? KHSNKKVMRTKSSEKAANDDHSVR [CPXM2]
Marked response: criterion met

Exam item: Is the recorded value of protein stability index equal to or greater than 3 for this sequence? FTFLQPLPLSPGVLSSTPDHSFSL [ATF4]
Marked response: criterion not met

Exam item: Is the recorded value of protein stability index equal to or greater than 3 for this sequence? HLVPEPDRLEEQLPWLSLRALKFR [DNAAF3]
Marked response: criterion not met

Exam item: Is the recorded value of protein stability index equal to or greater than 3 for this sequence? KLEPIKSRAPQLHLEYRFYKQLGS [CSNK1G1]
Marked response: criterion not met

Exam item: Is the recorded value of protein stability index equal to or greater than 3 for this sequence? RYEEANNNQYSEGVQREAQRIALR [KMT2E]
Marked response: criterion met

Exam item: Is the recorded value of protein stability index equal to or greater than 3 for this sequence? CGINANDVKKLEEAGFHTVEAVAY [RAD51]
Marked response: criterion not met

Exam item: Is the recorded value of protein stability index equal to or greater than 3 for this sequence? VCSSNKPAIVEAGGMQALGLHLTD [CTNNB1]
Marked response: criterion met

Exam item: Is the recorded value of protein stability index equal to or greater than 3 for this sequence? ESKLLRDLSAANEKNLLLQNQVDE [LRRC45]
Marked response: criterion met

Exam item: Is the recorded value of protein stability index equal to or greater than 3 for this sequence? QADLELDYNPPRVQLSDEMFVFQD [CBY2]
Marked response: criterion met

Exam item: Is the recorded value of protein stability index equal to or greater than 3 for this sequence? LCQKQVKAQLPRRESERRNHSLAR [FBXO28]
Marked response: criterion met

Exam item: Is the recorded value of protein stability index equal to or greater than 3 for this sequence? GGIKTVDMRDPTYRPLKQELQGLD [SPSB1]
Marked response: criterion met

Exam item: Is the recorded value of protein stability index equal to or greater than 3 for this sequence? DFFWNETWYLKTIDICHDHFGWYL [DHCR7]
Marked response: criterion met

Exam item: Is the recorded value of protein stability index equal to or greater than 3 for this sequence? ISLDVLQPSFPEILLESHMVMIRG [POMT2]
Marked response: criterion not met

Exam item: Is the recorded value of protein stability index equal to or greater than 3 for this sequence? THICRSHNSINQSLDESVIYGPGN [SLC2A12]
Marked response: criterion met

Exam item: Is the recorded value of protein stability index equal to or greater than 3 for this sequence? ACFLVRGLLLRGAVDGILHMFTPK [SLC6A17]
Marked response: criterion not met

Exam item: Is the recorded value of protein stability index equal to or greater than 3 for this sequence? HNAWLSYSLLPQSTAPGLFLVSTH [PCDHGC5]
Marked response: criterion not met

Exam item: Is the recorded value of protein stability index equal to or greater than 3 for this sequence? GTDIVRGCDPLVKPVGRQACDLQP [ADAMTSL2]
Marked response: criterion met

Exam item: Is the recorded value of protein stability index equal to or greater than 3 for this sequence? QFILRVSPDLEWHAACLKCAECSQ [ISL2]
Marked response: criterion not met

Exam item: Is the recorded value of protein stability index equal to or greater than 3 for this sequence? KGKDNKHPMYRRLVHSAVDVPTIQ [ZMYND11]
Marked response: criterion met

Exam item: Is the recorded value of protein stability index equal to or greater than 3 for this sequence? ASVVLPARELQEALPEAPAPLLPH [BCL2L13]
Marked response: criterion met

Exam item: Is the recorded value of protein stability index equal to or greater than 3 for this sequence? SQENSINPIQKEEDEGVDLSEGSS [SPANXN3]
Marked response: criterion met

Exam item: Is the recorded value of protein stability index equal to or greater than 3 for this sequence? EGSLWAVGTESQGRDWRHLPTITS [PXN]
Marked response: criterion met

Exam item: Is the recorded value of protein stability index equal to or greater than 3 for this sequence? LRCGNQGKGWKATRLFHDSAVTSV [DCAF4]
Marked response: criterion not met

Exam item: Is the recorded value of protein stability index equal to or greater than 3 for this sequence? MGSSQATMTSSQSMNFSMMSTNTV [CLINT1]
Marked response: criterion met

Exam item: Is the recorded value of protein stability index equal to or greater than 3 for this sequence? CAINKVGVSFSTVENELMISYLMF [FAM98B]
Marked response: criterion not met

Exam item: Is the recorded value of protein stability index equal to or greater than 3 for this sequence? PGASTEEVKRAFFSKSKELHPDRD [DNAJC4]
Marked response: criterion met

Exam item: Is the recorded value of protein stability index equal to or greater than 3 for this sequence? NATDPDEGTNGQLDYSFGDHTSEA [PCDHGC5]
Marked response: criterion met

Exam item: Is the recorded value of protein stability index equal to or greater than 3 for this sequence? YYEMGIHCWDVAGAGIIVTEAGGV [IMPA1]
Marked response: criterion not met

Exam item: Is the recorded value of protein stability index equal to or greater than 3 for this sequence? EDDDWGEDTTEEAQRRRMDEISDH [EIF5]
Marked response: criterion met

Exam item: Is the recorded value of protein stability index equal to or greater than 3 for this sequence? RHDGYATNDGNHPSCQETRDYAPP [RBMY1A1]
Marked response: criterion met

Exam item: Is the recorded value of protein stability index equal to or greater than 3 for this sequence? KSRLVQLPPVAVRSLQDLARIAIR [PCMTD2]
Marked response: criterion met

Exam item: Is the recorded value of protein stability index equal to or greater than 3 for this sequence? DITVSVSTSFLPELSSVHPPHYFF [FBXO3]
Marked response: criterion not met

Exam item: Is the recorded value of protein stability index equal to or greater than 3 for this sequence? DRDPNSLLISCAVSYRGAWWYRNC [TNXB]
Marked response: criterion not met

Exam item: Is the recorded value of protein stability index equal to or greater than 3 for this sequence? PMVNHAEASRLNIERMKQIYQQLS [CRY1]
Marked response: criterion not met

Exam item: Is the recorded value of protein stability index equal to or greater than 3 for this sequence? QEELTRINQSFTGAERKAALCELL [IQUB]
Marked response: criterion met

Exam item: Is the recorded value of protein stability index equal to or greater than 3 for this sequence? DKSEYLEMEEGVKESLCAKEEKCQ [KCNA4]
Marked response: criterion met

Exam item: Is the recorded value of protein stability index equal to or greater than 3 for this sequence? LKDIFMFITRQLKGLEDTKSPQFN [PDS5B]
Marked response: criterion not met

Exam item: Is the recorded value of protein stability index equal to or greater than 3 for this sequence? DIEMSMRGDIFERIVHLQETCDLG [NLN]
Marked response: criterion met

Exam item: Is the recorded value of protein stability index equal to or greater than 3 for this sequence? APVANSYRGTLKRQPAFDTFDGSL [ETS2]
Marked response: criterion met

Exam item: Is the recorded value of protein stability index equal to or greater than 3 for this sequence? YQDDPDLRFLLDQVQLGLRCCGAA [TSPAN10]
Marked response: criterion not met

Exam item: Is the recorded value of protein stability index equal to or greater than 3 for this sequence? GYGGGLGAGFGGGLGAGFGGGFAG [KRT16]
Marked response: criterion not met

Exam item: Is the recorded value of protein stability index equal to or greater than 3 for this sequence? EDIVFETDHILESLYRDIRDIQDE [STX11]
Marked response: criterion met

Exam item: Is the recorded value of protein stability index equal to or greater than 3 for this sequence? RVFQNRFSTQYRCFSVSMLAGPND [UFD1]
Marked response: criterion not met

Exam item: Is the recorded value of protein stability index equal to or greater than 3 for this sequence? GGGSNNGKTPVCHQCHKVIRGRYL [PDLIM7]
Marked response: criterion not met

Exam item: Is the recorded value of protein stability index equal to or greater than 3 for this sequence? PRGRRISVICRSLPEGMGPGESGQ [ALKBH7]
Marked response: criterion met

Exam item: Is the recorded value of protein stability index equal to or greater than 3 for this sequence? LKGYLYAVGGRNAAGELPTVECYN [KLHL13]
Marked response: criterion not met

Exam item: Is the recorded value of protein stability index equal to or greater than 3 for this sequence? PKDIMTNTHAKSILNSMNSLRKSN [KLHL12]
Marked response: criterion met

Exam item: Is the recorded value of protein stability index equal to or greater than 3 for this sequence? EGPSVVKRPAPRTAPRQEKHERTH [SPRY1]
Marked response: criterion met

Exam item: Is the recorded value of protein stability index equal to or greater than 3 for this sequence? ERNFWDPSPQLDTQQEIKLCQKSN [WDR41]
Marked response: criterion met

Exam item: Is the recorded value of protein stability index equal to or greater than 3 for this sequence? GDPEEPLTGFSWRGGSDPETTGIQ [ATL3]
Marked response: criterion met
